subject_of_test: T1, recombinant CD3D&E protein (human CD3-his tag) (human, UniProt P04234 22-105; P07766 23-126, limits assumed)
T1 construct: Analyte in Biacore; also called CD3D&E-His; CD3d&ε-His
test_protocol: SPR Biacore, Ab captured on Protein A;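 further: humanized antibodies on a Protein A chip, human CD3-his analyte flowed over in serial dilutions for 3 min, dissociation tracked 120–360 s on a Biacore T200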
result_type: pKd
One number for each entry, as −log10 of the molar value.

binder | result_type | value
Hu192A7B9-22 (antibody, V domains shown, humanized mAb) VH: EVQLQESGPGLVKPSETLSLTCTVSGGSISSYNVHWVRQPPGKGLEWMGRMRYNGDTSYNSALKSRLTISRDTSKNQFSLKLSSVTAADTAVYYCTRGPRGGYYSALFDYWGQGTMVTVSS VL: DIQMTQSPSSLSASVGDRVTITCKASQNINRYLNWYQQKPGKAPKVLISIANSLQTGIPSRFSGSGSGTDFTLTISSLQPEDFATYFCLQHNSWYTFGQGTKLEIK | pKd | 7.26
Hu155A9B1-3 (antibody, V domains shown, humanized mAb) VH: EVQLQESGPGLVKPSETLSLTCTVSGGSISSYNVHWVRQPPGKGLEWMGRVRYNGDTSYNSALKSRLTISRDTSKNQFSLKLSSVTAADTAVYYCARGPYGGSSEPLFDYWGQGTMVTVSS VL: DIQMTQSPSSLSASVGDRVTITCKASQNINKYLNWYQQKPGKAPRLLIYTTNNLQTGVPSRFSGSGSGTDFTLTISSLQPEDFATYYCLQHNSGYTFGQGTKLEIK | pKd | 7.74

--- query ---
## Task Need pKd, item Hu192A7B9-13 (antibody, V domains shown, humanized mAb) VH: EVQLQESGPGLVKPSETLSLTCTVSGGSISSYNVHWIRQPPGKGLEWIGRMRYNGDTSYNSALKSRVTISVDTSKNQFSLKLSSVTAADTAVYYCARGPRGGYYSALFDYWGQGTMVTVSS VL: DIQMTQSPSSLSASVGDRVTITCKASQNINRYLNWYQQKPGKAPKLLISIANSLQTGIPSRFSGSGSGTDFTLTISSLQPEDFATYYCLQHNSWYTFGQGTKLEIK
## Result 7.66

Sourced from patent US20240417469A1
